study system: T1, RPtag(small) Nd2, Cd4 (Thermoanaerobacter tengcongensis)
T1 peptide: RhodamineB-KIPNFIPAELKLITK
assay protocol: fluorescence anisotropy; 2 nM rhodamine Nd2Cd4, unlabeled RPtag large variant titrated; bar of Ka = 1/Kd, right axis
No end group written: not given here. *: point of attachment. RhodamineB = CCN(CC)c1ccc2c(-c3ccccc3C(=O)*)c3ccc(=[N+](CC)CC)cc-3oc2c1

binder	binding result
g130a (designed binder, also called RPtag(large) G130A) single chain: MGSSCHHHHHHSQDPNSSSMKEGKTIGLVISTLNNPFFVTLKNGAEEKAKELGYKIIVEDSQNDSSKELSNVEDLIQQKVDVLLINPVDSDAVVTAIKEANSKNIPVITIDRSANGGDVVSHIASDNVKAGEMAAEFIAKALKGKGNVVELEGIPGASAARDRGKGFDEAIAKYPDIKIVAKQAADFDRSKGLSVMENILQAQPKIDAVFAQNDEMALGAIKAIEAANRQGIIVVGFDGTEDALKAIKEGKMAATIAQQPALMGSLGVEMADKYLK	binds
m270r (designed binder, also called RPtag(large) M270R) single chain: MGSSCHHHHHHSQDPNSSSMKEGKTIGLVISTLNNPFFVTLKNGAEEKAKELGYKIIVEDSQNDSSKELSNVEDLIQQKVDVLLINPVDSDAVVTAIKEANSKNIPVITIDRSANGGDVVSHIASDNVKGGEMAAEFIAKALKGKGNVVELEGIPGASAARDRGKGFDEAIAKYPDIKIVAKQAADFDRSKGLSVMENILQAQPKIDAVFAQNDEMALGAIKAIEAANRQGIIVVGFDGTEDALKAIKEGKMAATIAQQPALMGSLGVERADKYLK	binds
